system: Klebsiella pneumoniae; details: Concentration 20 uM; ASSAY_TEST Inhibition of Bacterial Growth; detection method Absorption (OD600); MEDIA CAMHB; plate type 384well; NBS; CORNING #3640; time 18 hr
Description: Antibacterial activity against Klebsiella pneumoniae MDR ATCC 70063 (CO-ADD:GN_003); MIC in CAMBH media using NBS plates, by OD(600)
Potency and affinity values are given separately.
Reported values of Inhibition for individual entries
Numbers only here, please. The scale is %.

Previously resolved entries follow.
>>> print(df.to_string())
                                   molecule  unit_symbol  obs_value
0  CCCC(=O)Nc1ccc(OCC(O)CNC(C)C)c(C(C)=O)c1.Cl (centres undefined) [ACEBUTOLOL HYDROCHLORIDE]            %      19.26
1              CC(C)(C(=O)c1cccnc1)c1cccnc1            %      19.17
2  CC(=O)O.NCc1ccc(S(N)(=O)=O)cc1 [MAFENIDE ACETATE]            %      13.84

Task: For Oc1ncc(F)cn1 , what is its reported Inhibition?
Result: 12.75

====

system: Cryptococcus neoformans; details: Concentration 20 uM; ASSAY_TEST Inhibition of Fungal Growth; detection method Resazurin; Absorption (OD600-OD570); plate type 384well; NBS; CORNING #3640
Description: Antifungal activity against Cryptococcus neoformans H99 ATCC 208821 (CO-ADD:FG_002); MIC in YNB media using NBS plates, by Resazurin OD(600-570)
Entries with a potency or affinity are not part of this list.
QUANTITY KIND: Inhibition (%)
// units = %; emit number, no label

These solved cases illustrate the format of a correct answer.
MOLECULE	Inhibition [%]
COc1ccc(C(=O)NCc2ccc(OCCN(C)C)cc2)cc1OC.Cl	-2.57
CCOC(=O)[C@H](CCc1ccccc1)N[C@@H](C)C(=O)N1[C@H](C(=O)O)C[C@@H]2CCC[C@@H]21	-1.7
CC(C)[N+]1(C)C2CCC1CC(OC(=O)C(CO)c1ccccc1)C2.[Br-] (configuration not stated)	-6.11
COC(=O)Nc1nc2cc(C(=O)c3ccccc3)ccc2[nH]1	41.35
CCN(CC)CCOc1ccc(C(=C(Cl)c2ccccc2)c2ccccc2)cc1.O=C(O)CC(O)(CC(=O)O)C(=O)O [CLOMIPHENE CITRATE]	-20.85

Task: Inhibition of CS(=O)(=O)O.Cc1ccc(NC(=O)c2ccc(CN3CCN(C)CC3)cc2)cc1Nc1nccc(-c2cccnc2)n1 [IMATINIB MESYLATE] on Cryptococcus neoformans?
Result: 9.11

Task: Query for Cryptococcus neoformans: what Inhibition does the record show for Nc1ccn([C@@H]2CS[C@H](CO)O2)c(=O)n1 ?
Result: -7.82

Task: Hi! What's the reported Inhibition for COc1cc(OC)c(C(=O)CCCN2CCCC2)c(OC)c1.Cl on Cryptococcus neoformans?
Result: -6.77

Task: API: value(readout=Inhibition, system=Cryptococcus neoformans) for record NNC(=O)c1ccncc1
Result: -3.6

Task: Enter reported Inhibition observed with Cryptococcus neoformans for CCCNCC(O)COc1ccccc1C(=O)CCc1ccccc1 (configuration not stated)
Result: -5.76

Task: Given the entry Cc1nccn1CC1CCc2c(c3ccccc3n2C)C1=O (configuration not stated) , what Inhibition was observed with Cryptococcus neoformans?
Result: -0.32

====

Measured Inhibition of individual entries
tested on: Candida albicans; conditions: 20 µM
Description: Antifungal activity against Candida albicans ATCC 90028 (CO-ADD:FG_001); MIC in YNB media using NBS plates, by OD630
Measured potencies and affinities stand elsewhere.
Respond numerically; units are % and should not be typed.

Before answering, review these 5 worked examples.
>>> df
                                   compound  obs_value
0  Br.Br.O=C1CC2(CCCC2)CC(=O)N1CCNCC1COc2ccccc2O1 (centres undefined)       3.99
1    CCC1(c2ccccc2)C(=O)NCNC1=O [PRIMIDONE]       2.22
2  CNC(=C[N+](=O)[O-])NCCSCc1csc(CN(C)C)n1 [NIZATIDINE]       0.73
3  CN(CCOc1ccc(NS(C)(=O)=O)cc1)CCc1ccc(NS(C)(=O)=O)cc1 [DOFETILIDE]       2.12
4  Nc1nnc(-c2cccc(Cl)c2Cl)c(N)n1 [LAMOTRIGINE]       3.32

Task: Lookup: Inhibition / Candida albicans / NNC(=O)c1ccncc1 [ISONIAZID]
Result: 3.95

Task: Lab note: need Inhibition with Candida albicans for entry CCN(CC)CCOC(=O)C1(C2CCCCC2)CCCCC1.Cl [DICYCLOMINE HYDROCHLORIDE] , please look it up.
Result: 3.82

Task: Reported Inhibition for Candida albicans, given Cc1ccc(Cl)c(Nc2ccccc2C(=O)[O-])c1Cl.O.[Na+] [MECLOFENAMATE SODIUM] ?
Result: 8.09

Task: Kindly state the measured Inhibition obtained for Cc1ccc(O)c([C@H](CCN(C(C)C)C(C)C)c2ccccc2)c1.O=C(O)C(O)C(O)C(=O)O [TOLTERODINE TARTRATE] with Candida albicans.
Result: 4.41

====

system: Candida albicans; conditions: 20 µM
Measured potencies and affinities stand elsewhere.
Label scheme for Inhibition: low group: < 2%; middle group: ≥ 2% and < 3%; high group: ≥ 3%

In [3]: df
Out[3]:
                                   compound            system  category_label
0  CC(C)OC(=O)CCC/C=C\C[C@@H]1[C@@H](CC[C@@H](O)CCc2ccccc2)[C@H](O)C[C@@H]1O  Candida albicans       low group
1  CC(N/C(=N\C#N)Nc1ccncc1)C(C)(C)C.O (centres undefined)  Candida albicans       low group
2  Nc1nc(Cl)nc2c1ncn2[C@@H]1O[C@H](CO)[C@@H](O)[C@H]1O  Candida albicans      high group
3  Cc1nc(=O)c2cc(CN(C)c3ccc(C(=O)N[C@@H](CCC(=O)O)C(=O)O)s3)ccc2[nH]1  Candida albicans    middle group
4  Nc1nc(N)nc(-c2cc(Cl)ccc2Cl)n1.O=C(O)/C=C\C(=O)O [IRSOGLADINE MALEATE]  Candida albicans    middle group

Kindly consider the entry below.
Task: Hello team, could you let me know which band the following compound falls into: CCC(CO)NCCNC(CC)CO (centres undefined)
Result: middle group

====

List of Inhibition values.
tested on: Candida albicans; conditions: 20 µM
Entries with a potency or affinity are not part of this list.
Please respond with the number in % and leave the unit unwritten.

Task: // Inhibition lookup, key: CC(C)(C#N)c1cc(Cn2cncn2)cc(C(C)(C)C#N)c1
Result: 1.23

====

Parameter: Inhibition. Scope: all listed entries.
test system: Cryptococcus neoformans; settings: Concentration 20 uM; ASSAY_TEST Inhibition of Fungal Growth; detection method Resazurin; Absorption (OD600-OD570); plate type 384well; NBS; CORNING #3640
Entries with a potency or affinity are not part of this list.
Quick note: give the figure in %, leave out the unit.

Check out these entries, answers already filled in.
MOLECULE	UNIT SYMBOL	Inhibition
CC(=O)NS(=O)(=O)c1ccc(N)cc1 [SULFACETAMIDE]	%	0.24
CC#C[C@]1(O)CC[C@H]2[C@@H]3CCC4=CC(=O)CCC4=C3[C@@H](c3ccc(N(C)C)cc3)C[C@@]21C	%	-10.45
CCOC(=O)c1ccc(OC(=O)CCCCCN=C(N)N)cc1.CS(=O)(=O)O	%	-7.27

Task: Could you tell me which Inhibition is on file for Cc1nc(=O)c2cc(CN(C)c3ccc(C(=O)N[C@@H](CCC(=O)O)C(=O)O)s3)ccc2[nH]1 ?
Result: -0.58

Task: Using the record for Cl.NC12CC3CC(CC(C3)C1)C2 [AMANTADINE HYDROCHLORIDE] , report its Inhibition.
Result: -3.67

Task: Field request: Inhibition | item: CC(c1cc2ccccc2s1)N(O)C(N)=O (stereo unspecified)
Result: 2.66

Task: Reported Inhibition for O=C(O[C@H]1[C@H](Oc2ccccc2COC(=O)C2(O)C=CCCC2=O)O[C@H](CO)[C@@H](O)[C@@H]1O)c1ccccc1 (stereo partly specified) : what is it?
Result: -9.11

Task: What Inhibition value was documented for this molecule, CCCN[C@H]1CCc2nc(N)sc2C1 [PRAMIPEXOLE] ?
Result: -0.71

====

system: Cryptococcus neoformans; conditions: Concentration 20 uM; ASSAY_TEST Inhibition of Fungal Growth; detection method Resazurin; Absorption (OD600-OD570); plate type 384well; NBS; CORNING #3640
Results with a measured potency or affinity are listed apart.
Recorded Inhibition by entry
Express the result in % but write the number alone.

Example entries begin here.
>>> df
                                   molecule  unit_symbol  obs_value
0  CN1CCN(C2=Nc3ccccc3Oc3ccc(Cl)cc32)CC1.O=C(O)CCC(=O)O [LOXAPINE SUCCINATE]            %      -0.59
1  CN(C)CC[C@@H](c1ccc(Br)cc1)c1ccccn1.O=C(O)/C=C\C(=O)O [DEXBROMPHENIRAMINE MALEATE]            %       -3.8
2                                 Cn1ccnc1S            %       0.77
3  CC(=O)NCCCCCCNC(C)=O [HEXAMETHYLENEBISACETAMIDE]            %      -6.53
4  CN(C)CCC[C@@]1(c2ccc(F)cc2)OCc2cc(C#N)ccc21.O=C(O)C(=O)O [ESCITALOPRAM OXALATE]            %     -10.38

Task: Consider the molecule shown here: CC(C)[N+](C)(CCOC(=O)C1c2ccccc2Oc2ccccc21)C(C)C.[Br-] [PROPANTHELINE BROMIDE] What is its recorded Inhibition?
Result: -1.43

Task: Inhibition for Cl.Cn1c(NCCN(CCO)CCCc2ccc([N+](=O)[O-])cc2)cc(=O)n(C)c1=O ?
Result: -1.07

Task: What measured Inhibition goes with O=C([O-])Cc1ccccc1Nc1c(Cl)cccc1Cl.[Na+] [DICLOFENAC SODIUM] ?
Result: 1.05

Task: Form field: reported Inhibition of CC(=O)O.CNC(=N)NCCC[C@H](N)C(=O)O [TILARGININE ACETATE]
Result: -3.5

Task: I would be grateful if you could share the reported Inhibition for CC(C)NCC(O)c1cc(O)cc(O)c1 (stereo not drawn) .
Result: 0.32

Task: Reported Inhibition, molecule CCCc1nc2c(C)cc(-c3nc4ccccc4n3C)cc2n1Cc1ccc(-c2ccccc2C(=O)O)cc1 : ____
Result: -31

Task: If you can, please state the reported Inhibition value of C[C@H](N[C@@H](CCc1ccccc1)C(=O)O)C(=O)N1CCC[C@H]1C(=O)O [ENALAPRILAT ANHYDROUS] .
Result: 1.01

Task: Need Inhibition, item Cl.O=C1CN2Cc3c(ccc(Cl)c3Cl)N=C2N1 [ANAGRELIDE HYDROCHLORIDE]
Result: -6.07

Task: Which measured Inhibition value corresponds to O=C1Nc2ccc(Cl)cc2[C@@](C#CC2CC2)(C(F)(F)F)O1 ?
Result: -5.8

Task: Quick one: Inhibition for Cc1ccc(-c2cc(C(F)(F)F)nn2-c2ccc(S(N)(=O)=O)cc2)cc1 ?
Result: 0.77

Task: For the molecule CC1=C(/C=C/C(C)=C/C=C/C(C)=C/C(=O)O)C(C)(C)CCC1 , what Inhibition is on record?
Result: -0.54

Task: Quick one: Inhibition for CCCc1c(OCCCCc2nnn[nH]2)ccc(C(C)=O)c1O ?
Result: 3.29

Task: Requested field: Inhibition. Item: CCOC(=O)C1(CCCCCCOc2ccc(Cl)cc2)CO1 (stereo not drawn)
Result: -1.88
